experiment: Cytotoxicity against mouse RAW264.7 cells assessed as growth inhibition at 25 uM after 48 hrs by MTT assay relative to control; assay type: cell-based; details: read-out: GI
value-type: inhibition at 48 h, 25 µM
Could you write the number and then its unit?

# inhibition at 48 h, 25 µM lookup, item `S=C(Nc1ccccc1)Nc1cccc(-c2nc3ccccc3s2)c1` 2.35%

Endpoint output: inhibition at 48 h, 25 µM of `FC(F)(F)c1ccc2sc(-c3cccc(NC(=S)Nc4ccccc4)c3)nc2c1` . Value? 28.1%

Look up inhibition at 48 h, 25 µM: `FC(F)(F)c1ccc2sc(-c3cccc(NC(=S)Nc4ccc(Cl)cc4)c3)nc2c1` 97.3%

What value of inhibition at 48 h, 25 µM has been reported for the following compound? `O=[N+]([O-])c1ccc(NC(=S)Nc2cccc(-c3nc4ccccc4s3)c2)cc1` 98.2%

What value of inhibition at 48 h, 25 µM has been recorded for this entry: `FC(F)(F)c1ccc2sc(-c3cccc(NC(=S)NCc4ccccc4)c3)nc2c1` 96.1%

Look at this compound and give its reported inhibition at 48 h, 25 µM. `S=C(Nc1ccc(Cl)cc1)Nc1cccc(-c2nc3ccccc3s2)c1` 58.4%

Report inhibition at 48 h, 25 µM for `S=C(NCc1ccccc1)Nc1cccc(-c2nc3ccccc3s2)c1` please. 32.2%

I'd like to know its inhibition at 48 h, 25 µM. The compound in question is `O=C(Nc1ccccc1)Nc1cccc(-c2nc3ccccc3s2)c1` 97.2%

Requested read-out: inhibition at 48 h, 25 µM. Entry: `O=C(Nc1ccc(Cl)cc1)Nc1cccc(-c2nc3ccccc3s2)c1` 30.1%

Quick one: inhibition at 48 h, 25 µM of `Cc1ccc(NC(=S)Nc2cccc(-c3nc4cc(C(F)(F)F)ccc4s3)c2)cc1` ? 97.1%

Need inhibition at 48 h, 25 µM, item `COc1ccc(NC(=O)Nc2cccc(-c3nc4ccccc4s3)c2)cc1` 56.1%

If you can, please state the reported inhibition at 48 h, 25 µM value of `Fc1ccc(NC(=S)Nc2cccc(-c3nc4cc(C(F)(F)F)ccc4s3)c2)cc1` . 76.3%

For the compound shown here, `O=C(Nc1ccc(F)cc1)Nc1cccc(-c2nc3cc(C(F)(F)F)ccc3s2)c1` , give the reported inhibition at 48 h, 25 µM. 97.7%

Query: inhibition at 48 h, 25 µM; subject: `O=C(Nc1ccc(Cl)cc1)Nc1cccc(-c2nc3cc(C(F)(F)F)ccc3s2)c1` 45.7%

Data request, read-out inhibition at 48 h, 25 µM, for `O=C(Nc1ccc([N+](=O)[O-])cc1)Nc1cccc(-c2nc3cc(C(F)(F)F)ccc3s2)c1` 99.2%

Query (compound): `COc1ccc(NC(=O)Nc2cccc(-c3nc4cc(C(F)(F)F)ccc4s3)c2)cc1` ; field requested: inhibition at 48 h, 25 µM 59.1%

I am curious: what inhibition at 48 h, 25 µM value has been reported for `Cc1ccc(NC(=O)Nc2cccc(-c3nc4ccccc4s3)c2)cc1` ? 31.2%

Fill in: inhibition at 48 h, 25 µM of `Cc1ccc(NC(=O)Nc2cccc(-c3nc4cc(C(F)(F)F)ccc4s3)c2)cc1` is ___ 22.5%

Requested field: inhibition at 48 h, 25 µM. Item: `Cc1ccc(NC(=S)Nc2cccc(-c3nc4ccccc4s3)c2)cc1` 17.5%

Please give the measured inhibition at 48 h, 25 µM for this compound: `O=[N+]([O-])c1ccc(NC(=S)Nc2cccc(-c3nc4cc(C(F)(F)F)ccc4s3)c2)cc1` 18.4%

May I ask what inhibition at 48 h, 25 µM has been recorded for `O=C(Nc1ccccc1)Nc1cccc(-c2nc3cc(C(F)(F)F)ccc3s2)c1` ? 40%

What value of inhibition at 48 h, 25 µM has been recorded for this entry: `Fc1ccc(NC(=S)Nc2cccc(-c3nc4ccccc4s3)c2)cc1` 98.2%

Tell me the measured inhibition at 48 h, 25 µM of `O=C(Nc1ccc([N+](=O)[O-])cc1)Nc1cccc(-c2nc3ccccc3s2)c1` , please. 42.1%
